- target-of-assay: human TGR5 (Homo sapiens)
- Construct: expressed in transfected cells; host or cells: HEK293
- run-description: Cell-based TGR5 assay (cAMP generation, HTRF)
- condition-set: HEK293 cells stably transfected with human TGR5; cAMP by HTRF; 30 minutes at 37° C.; read-out: pEC50 Human TGR5 (converted)
measurement-label: EC50

Recorded EC50, per entry:
compound	target-of-assay	EC50
CN(CCOCCN)S(=O)(=O)c1ccc(Cl)c(COC2(c3cnccc3-c3ccccc3OC3CC3)CC2)c1 [Compound I-400]	human TGR5 (Homo sapiens)	0.126 to 1 µM
O=C(NCCCC(CO)c1ccc(Cl)c(CNC2(c3cnccc3-c3ccccc3OC3CC3)CC2)c1)[C@@H](O)[C@@H](O)[C@H](O)[C@@H](O)CO (stereo partly shown) [Compound I-380]	human TGR5 (Homo sapiens)	0.126 to 1 µM
O=C([C@@H](O)[C@@H](O)[C@H](O)[C@@H](O)CO)N(CCCCO)CCCSc1ccc(Cl)c(COC2(c3cnccc3-c3ccccc3OC3CC3)CC2)c1 [Compound I-519]	human TGR5 (Homo sapiens)	0.126 to 1 µM

API: the following record is the query input.
What EC50 appears in the records for this compound with human TGR5 (Homo sapiens)? CC(CCCCN)c1ccc(Cl)c(CNC2(c3cnccc3-c3ccccc3OC3CC3)CC2)c1 (stereo not shown) [Compound I-242] < 0.1 µM

====

- target-of-assay: human TGR5 (Homo sapiens, UniProt Q8TDU6)
- Construct: expressed in transfected cells; host or cells: HEK293
- Sequence (Q8TDU6 whole entry): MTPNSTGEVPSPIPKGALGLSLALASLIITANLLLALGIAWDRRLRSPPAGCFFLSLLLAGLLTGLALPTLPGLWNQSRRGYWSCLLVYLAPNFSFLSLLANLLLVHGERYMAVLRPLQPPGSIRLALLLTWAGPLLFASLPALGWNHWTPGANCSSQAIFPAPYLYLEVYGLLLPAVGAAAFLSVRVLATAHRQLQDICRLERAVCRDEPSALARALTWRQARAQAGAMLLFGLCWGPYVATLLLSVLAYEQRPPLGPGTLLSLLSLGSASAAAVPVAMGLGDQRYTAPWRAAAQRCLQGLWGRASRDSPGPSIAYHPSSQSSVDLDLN
- run-description: Cell-based TGR5 assay (cAMP generation, HTRF)
- condition-set: HEK293 cells stably transfected with human TGR5; cAMP by HTRF; 30 minutes at 37° C.; read-out: pEC50 Human TGR5 (converted)
measurement-label: EC50

Recorded EC50, per entry:
compound	target-of-assay	EC50
CCS(=O)(=O)CCN(CCCCCSc1ccc(Cl)c(COC2(c3cnccc3-c3ccccc3OC3CC3)CC2)c1)C(=O)[C@@H](O)[C@@H](O)[C@H](O)[C@@H](O)CO	human TGR5 (Homo sapiens, UniProt Q8TDU6)	< 100 nM
CC(CCCCNC(=O)[C@@H](O)[C@@H](O)[C@H](O)[C@@H](O)CO)c1ccc(Cl)c(CNC2(c3cnccc3-c3ccccc3OC3CC3)CC2)c1 (stereo partly shown)	human TGR5 (Homo sapiens, UniProt Q8TDU6)	< 100 nM
Cn1c(C(=O)NC[C@H](O)[C@@H](O)[C@H](O)[C@H](O)CO)cnc1SCc1ccc(Cl)c(COC2(c3cnccc3-c3ccccc3OC3CC3)CC2)c1	human TGR5 (Homo sapiens, UniProt Q8TDU6)	126 to 1000 nM
O=C(N[C@@H](CO)[C@@H](O)[C@H](O)[C@H](O)CO)c1cccc(OCc2ccc(Cl)c(COC3(c4cnccc4-c4ccccc4OC4CC4)CC3)c2)c1	human TGR5 (Homo sapiens, UniProt Q8TDU6)	126 to 1000 nM
O=C([C@@H](O)[C@@H](O)[C@H](O)[C@@H](O)CO)N(CCCSc1ccc(Cl)c(CNC2(c3cnccc3-c3ccccc3OC3CC3)CC2)c1)CCN1CCS(=O)(=O)CC1	human TGR5 (Homo sapiens, UniProt Q8TDU6)	126 to 1000 nM
Cc1cnc(SCCCC(=O)N(C)C[C@H](O)[C@@H](O)[C@H](O)[C@H](O)CO)nc1CNC1(c2cnccc2-c2ccccc2OC2CC2)CC1	human TGR5 (Homo sapiens, UniProt Q8TDU6)	12600 to 50100 nM
O=C(CCCSc1ccc(Cl)c(COC2(c3cnccc3-c3ccccc3OC3CC3)CC2)c1)N(CCO)C[C@H](O)[C@@H](O)[C@H](O)[C@H](O)CO	human TGR5 (Homo sapiens, UniProt Q8TDU6)	126 to 1000 nM
COCCCN(C[C@H](O)[C@@H](O)[C@H](O)[C@H](O)CO)C(=O)CCCC(C)c1ccc(C)c(CNC2(c3cnccc3-c3ccccc3OC3CC3)CC2)c1 (stereo partly shown)	human TGR5 (Homo sapiens, UniProt Q8TDU6)	< 100 nM

Report EC50 for every entry below.
1. Cc1ccc(SCCCCC(=O)N(C)C[C@H](O)[C@@H](O)[C@H](O)[C@H](O)CO)nc1COC1(c2cnccc2-c2ccccc2OC2CC2)CC1
2. Clc1ccc(Cl)c(CNC2(c3cnccc3-c3ccccc3OC3CCC3)CC2)c1

1. 1260 to 10000 nM
2. 126 to 1000 nM

Report EC50 for every entry below.
1. CC(CCCC(=O)N(CC(N)=O)C[C@H](O)[C@@H](O)[C@H](O)[C@H](O)CO)c1ccc(Cl)c(CNC2(c3cnccc3-c3ccccc3OC3CC3)CC2)c1 (stereo partly shown)
2. CC(=O)N(CCCCSc1ccc(Cl)c(COC2(c3cnccc3-c3ccccc3OC3CC3)CC2)c1)C[C@H](O)[C@@H](O)[C@H](O)[C@H](O)CO
3. CC(C)N(C[C@H](O)[C@@H](O)[C@H](O)[C@H](O)CO)C(=O)CCCSc1ccc(Cl)c(COC2(c3cnccc3-c3ccccc3OC3CC3)CC2)c1

< 100 nM
< 100 nM
< 100 nM

Report EC50 for every entry below.
1. CC(C)(NCc1cc(Cl)ccc1Cl)c1cnccc1-c1ccccc1OC1CC1
2. CC[C@@H](O)CN(C[C@H](O)[C@@H](O)[C@H](O)[C@H](O)CO)C(=O)CCCCc1cc(Cl)c(COC2(c3cnccc3-c3ccccc3OC3CC3)CC2)cc1Cl
3. CN(CCCCN(CCS(C)(=O)=O)C(=O)[C@@H](O)[C@@H](O)[C@H](O)[C@@H](O)CO)S(=O)(=O)c1ccc(Cl)c(COC2(c3cnccc3-c3ccccc3OC3CC3)CC2)c1
4. Cc1cc(COC2(c3cnccc3-c3ccccc3OC3CC3)CC2)c(C)cc1CCCCC(=O)NC[C@H](O)[C@@H](O)[C@H](O)[C@H](O)CO
5. Cc1cc(COC2(c3cnccc3-c3ccccc3OC3CC3)CC2)c(Cl)cc1CCCCN(C)C(=O)NC[C@H](O)[C@@H](O)[C@H](O)[C@H](O)CO

["< 100 nM", "< 100 nM", "< 100 nM", "< 100 nM", "< 100 nM"]
